Data origin: patent US10300155B2

- target under test: α-synuclein fibrils (Homo sapiens, UniProt P37840)
- Construct: made in house; host or cells: E. coli BL21(DE3)RIL
- measurement description: ThT competitive assay for α-synuclein fibrils (Table 1)
- Type: binding
- particulars: average; read-out: Ki (nM) α-syn (avg)
observation type: log10 Ki (log10 of the value in nM)
Quick note: numbers are log10 of Ki, with nM as the unit.

// returns log10 Ki for COc1ccc2ccc(/C=C/c3ccccc3)nc2c1 with α-synuclein fibrils (Homo sapiens, UniProt P37840); value = 2.82

// returns log10 Ki for Brc1ccc(/C=C/c2ccsc2)cc1 with α-synuclein fibrils (Homo sapiens, UniProt P37840); value = 2.50

// returns log10 Ki for COc1ccc(/C=C/c2ccc(C=O)s2)cc1 with α-synuclein fibrils (Homo sapiens, UniProt P37840); value = 2.17

// returns log10 Ki for COc1cc(/C=C/c2cnccn2)nc2ccccc12 with α-synuclein fibrils (Homo sapiens, UniProt P37840); value = 3.48

// returns log10 Ki for COc1ccc(C2CCN(C(=O)COC(=O)c3ccc(C(C)(C)C)cc3)CC2)cc1 with α-synuclein fibrils (Homo sapiens, UniProt P37840); value = 2.04

// returns log10 Ki for COc1ccc(/C=C/c2cnccn2)cc1OC with α-synuclein fibrils (Homo sapiens, UniProt P37840); value = 2.33

// returns log10 Ki for COc1ccc2nc(/C=C/c3ccnc(OC)c3)ccc2c1 with α-synuclein fibrils (Homo sapiens, UniProt P37840); value = 1.71

// returns log10 Ki for COc1ccc2nc(/C=C/c3ccco3)ccc2c1 with α-synuclein fibrils (Homo sapiens, UniProt P37840); value = 2.50

// returns log10 Ki for COc1ccc2nc(/C=C/c3ccncc3Cl)ccc2c1 with α-synuclein fibrils (Homo sapiens, UniProt P37840); value = 2.62

// returns log10 Ki for COc1ccc(/C=C/c2cc(Br)cs2)cc1 with α-synuclein fibrils (Homo sapiens, UniProt P37840); value = 2.41

// returns log10 Ki for COc1ccc(C(=O)N2CCN(C(=O)c3ccc(/C=C/c4ccncc4)cc3)CC2)cc1 with α-synuclein fibrils (Homo sapiens, UniProt P37840); value = 2.26

// returns log10 Ki for COc1ccc2nc(/C=C/c3ccsc3)ccc2c1 with α-synuclein fibrils (Homo sapiens, UniProt P37840); value = 2.09

----------
- target under test: α-synuclein fibrils (Homo sapiens, UniProt P37840)
- Construct: made in house; host or cells: E. coli BL21(DE3)RIL
- measurement description: ThT competitive assay for α-synuclein fibrils (Table 1)
- Type: binding
- particulars: α-synuclein fibrils; average; read-out: EC50 (nM) EC50 (avg)
- Description: Upon binding to amyloid fibrils, a peak at approximately 440 nm becomes dominant with the fluorescent emission maximum shifted to 480 nm. This is accompanied by a strong enhancement of the fluorescence. […] Once the ThT-α-synuclein saturation binding curve and dissociation constant (Kd) were determined the competitive assay for determining the binding affinity of various test compounds was conducted. […] The fluorescent intensity for each cell was measured by the fluorescence reader at λex and λem. […]
observation type: EC50 (nM)
Just the number in nM, nothing appended.

So for COc1ccc2nc(/C=C/c3cccnc3C)ccc2c1 [TZ-36-44] , the logged EC50 turned out to be 755

So for Fc1ccc(-c2ccc(-c3nc4cc(Br)ccc4o3)cc2C(F)(F)F)cn1 [TZ-31-108] , the logged EC50 turned out to be 4030

So for COc1ccc2nc(/C=C/c3cccnc3Cl)ccc2c1 [TZ-36-40] , the logged EC50 turned out to be 163

So for COc1cc(/C=C/c2ccc3cc(O)ccc3n2)ccn1 [TZ-36-146] , the logged EC50 turned out to be 332

So for COc1ccc2nc(C#Cc3ccnc(OC)c3)ccc2c1 [TZ-36-142] , the logged EC50 turned out to be 609

So for Ic1ccc(/C=C/c2cccs2)cc1 [TZ-34-63] , the logged EC50 turned out to be 208

So for COc1ccc(/C=C/c2cc(Br)cs2)cc1 [TZ-34-39] , the logged EC50 turned out to be 668

So for C(=C\c1cccs1)/c1ccncc1 [TZ-34-100] , the logged EC50 turned out to be 1580

So for OCc1ccc2oc(-c3ccc(-c4ccc(F)nc4)c(C(F)(F)F)c3)nc2c1 [TZ-31-123] , the logged EC50 turned out to be 82000

So for COc1ccc(/C=C/c2cc3ccccc3s2)cc1 [TZ-34-87] , the logged EC50 turned out to be 2310

So for COc1ccc2nc(/C=C/c3ccoc3)ccc2c1 [TZ-36-54] , the logged EC50 turned out to be 178

So for COc1ccc(/C=C/c2ccco2)cc1 [TZ-34-24] , the logged EC50 turned out to be 902

So for Brc1ccc(/C=C/c2ccsc2)cc1 [TZ-34-58] , the logged EC50 turned out to be 834

So for O=C(Nc1ccc(OCCF)cc1)c1ccc(/C=C/c2ccncc2)cc1 [TZ-23-88] , the logged EC50 turned out to be 83.8

So for Brc1ccc(/C=C/c2cccs2)cc1 [TZ-34-55] , the logged EC50 turned out to be 519

So for COc1ccc(/C=C/c2ccoc2)cc1 [TZ-34-27] , the logged EC50 turned out to be 1440
